# System: PC-3
# test_name: Antineoplastic activity against human PC3 cells after 48 hrs by MTT assay
# Assay type: functional, cell-based
# study_conditions: PC-3, 48 h
pIC50: −log10 of the molar value.
Parameter: pIC50. Scope: all listed entries.

| molecule | measured_target | pIC50 |
| --- | --- | --- |
| O=C1O/C(=C/Br)CCC1c1cccc2ccccc12 (racemic) | PC-3 | 4.59 |
| C#CCN1C/C(=C\Br)OC(=O)[C@@H]1Cc1ccccc1 | PC-3 | 4.24 |
| O=C1CCC/C(=C\I)O1 | PC-3 | 4.82 |
| C#CCN1C/C(=C\Br)OC(=O)[C@H]1c1ccccc1 | PC-3 | 5.22 |
| O=C1O/C(=C/Br)CCC1c1ccccc1 (racemic) | PC-3 | 5.00 |
| O=C1CCC/C(=C\Br)O1 | PC-3 | 4.64 |
